Experimental System: panel of more than 300 wild-type and mutant kinases (313 kinase panel) (Homo sapiens)
Run Description: Kinase profiling in a biochemical assay panel (mobility shift assays and ELISA), %-inhibition at 1 μM; selectivity entropy
Study Conditions: kinase ALK; 1 μM compound
Measured Attribute: %-inhibition, ALK
Please state the value followed by its unit.

CCCS(=O)(=O)Nc1ccc(F)c(C(=O)c2c[nH]c3ncc(-c4ccc(Cl)cc4)cc23)c1F | 1.14%
COc1cc(Nc2c(C#N)cnc3cc(OCCCN4CCN(C)CC4)c(OC)cc23)c(Cl)cc1Cl | 71%

Let us examine a further case.
Give the measured %-inhibition, ALK of Cc1ccc(Nc2nccc(N(C)c3ccc4c(C)n(C)nc4c3)n2)cc1S(N)(=O)=O . 48%

The reported numbers originate from paper PMC3961306.
